Reference source for all entries: the supplement of paper PMC9112550

tested on: Escherichia coli TOP10; assay: shrunken log2 fold change of peptide-encoding DNA abundance (4.5 h post-induction vs induction); higher = less antimicrobial activity (less host growth inhibition); settings: time post-induction: 4.5 h; library: site-saturation at positions 5, 18, 19, 20
# shrunken log2 fold change binned as Low = under -0.3, Medium = from -0.3 up to -0.02, High = -0.02 and over

>  <Record Sequence>
RRIRIRPPRLPRPRPRPSKHPRP

>  <Label Value>
Low

$$$$
>  <Record Sequence>
RRIRTRPPRLPRPRPRPFVMPRP

>  <Label Value>
Medium

$$$$
>  <Record Sequence>
RRIRCRPPRLPRPRPRPCWPPRP

>  <Label Value>
Medium

$$$$
>  <Record Sequence>
RRIRARPPRLPRPRPRPSFPPRP

>  <Label Value>
Medium

$$$$
>  <Record Sequence>
RRIRKRPPRLPRPRPRPSALPRP

>  <Label Value>
High

$$$$
>  <Record Sequence>
RRIRARPPRLPRPRPRPCDSPRP

>  <Label Value>
High

$$$$
>  <Record Sequence>
RRIRARPPRLPRPRPRPGRIPRP

>  <Label Value>
High

$$$$
>  <Record Sequence>
RRIRPRPPRLPRPRPRPIFCPRP

>  <Label Value>
Medium

$$$$
>  <Record Sequence>
RRIRFRPPRLPRPRPRPNKRPRP

>  <Label Value>
Medium

$$$$
>  <Record Sequence>
RRIRHRPPRLPRPRPRPFFYPRP

>  <Label Value>
Low

$$$$
>  <Record Sequence>
RRIRCRPPRLPRPRPRPCQDPRP

>  <Label Value>
Medium

$$$$
>  <Record Sequence>
RRIRIRPPRLPRPRPRPMDAPRP

>  <Label Value>
High

$$$$
>  <Record Sequence>
RRIRQRPPRLPRPRPRPNWPPRP

>  <Label Value>
High

$$$$
>  <Record Sequence>
RRIRYRPPRLPRPRPRPQFIPRP

>  <Label Value>
Low

$$$$
>  <Record Sequence>
RRIRFRPPRLPRPRPRPHLEPRP

>  <Label Value>
Low

$$$$
>  <Record Sequence>
RRIRVRPPRLPRPRPRPHNMPRP

>  <Label Value>
Low

$$$$
>  <Record Sequence>
RRIRDRPPRLPRPRPRPLGEPRP

>  <Label Value>
High

$$$$
>  <Record Sequence>
RRIRPRPPRLPRPRPRPFMHPRP

>  <Label Value>
High

$$$$
>  <Record Sequence>
RRIRVRPPRLPRPRPRPNFIPRP

>  <Label Value>
Medium

$$$$
>  <Record Sequence>
RRIRDRPPRLPRPRPRPIHWPRP

>  <Label Value>
Medium

$$$$
>  <Record Sequence>
RRIRMRPPRLPRPRPRPIPEPRP

>  <Label Value>
Medium

$$$$
>  <Record Sequence>
RRIRCRPPRLPRPRPRPEFYPRP

>  <Label Value>
Low

$$$$
>  <Record Sequence>
RRIRWRPPRLPRPRPRPQIYPRP

>  <Label Value>
High

$$$$
>  <Record Sequence>
RRIRYRPPRLPRPRPRPDINPRP

>  <Label Value>
Medium

$$$$
>  <Record Sequence>
RRIRWRPPRLPRPRPRPMCLPRP

>  <Label Value>
Medium

$$$$
>  <Record Sequence>
RRIRFRPPRLPRPRPRPIFDPRP

>  <Label Value>
Medium

$$$$
>  <Record Sequence>
RRIRCRPPRLPRPRPRPWFNPRP

>  <Label Value>
Low

$$$$
>  <Record Sequence>
RRIRIRPPRLPRPRPRPPEYPRP

>  <Label Value>
Medium

$$$$
>  <Record Sequence>
RRIRDRPPRLPRPRPRPSGSPRP

>  <Label Value>
High

$$$$
>  <Record Sequence>
RRIRNRPPRLPRPRPRPADSPRP

>  <Label Value>
High

$$$$
>  <Record Sequence>
RRIRDRPPRLPRPRPRPHAVPRP

>  <Label Value>
High

$$$$

* * *

shrunken log2 fold change by entry:
tested on: Escherichia coli TOP10; experiment: shrunken log2 fold change of peptide-encoding DNA abundance (4.5 h post-induction vs induction); higher = less antimicrobial activity (less host growth inhibition); conditions: time post-induction: 4.5 h; library: site-saturation at positions 5, 18, 19, 20
Quantity: shrunken log2 fold change

>  <Record Sequence>
RRIRVRPPRLPRPRPRPRLFPRP

>  <Quantity>
shrunken log2 fold change

>  <Val>
0.447

$$$$
>  <Record Sequence>
RRIRARPPRLPRPRPRPTIAPRP

>  <Quantity>
shrunken log2 fold change

>  <Val>
0.687

$$$$
>  <Record Sequence>
RRIRSRPPRLPRPRPRPVGCPRP

>  <Quantity>
shrunken log2 fold change

>  <Val>
0.281

$$$$
>  <Record Sequence>
RRIRERPPRLPRPRPRPRWQPRP

>  <Quantity>
shrunken log2 fold change

>  <Val>
0.245

$$$$
>  <Record Sequence>
RRIRVRPPRLPRPRPRPCDEPRP

>  <Quantity>
shrunken log2 fold change

>  <Val>
-0.488

$$$$
>  <Record Sequence>
RRIRRRPPRLPRPRPRPPNAPRP

>  <Quantity>
shrunken log2 fold change

>  <Val>
1.06

$$$$
>  <Record Sequence>
RRIRWRPPRLPRPRPRPTTWPRP

>  <Quantity>
shrunken log2 fold change

>  <Val>
0.297

$$$$
>  <Record Sequence>
RRIRMRPPRLPRPRPRPWLCPRP

>  <Quantity>
shrunken log2 fold change

>  <Val>
0.219

$$$$
>  <Record Sequence>
RRIRSRPPRLPRPRPRPGFRPRP

>  <Quantity>
shrunken log2 fold change

>  <Val>
0.165

$$$$
>  <Record Sequence>
RRIRDRPPRLPRPRPRPDWYPRP

>  <Quantity>
shrunken log2 fold change

>  <Val>
-0.0602

$$$$
>  <Record Sequence>
RRIRSRPPRLPRPRPRPLPDPRP

>  <Quantity>
shrunken log2 fold change

>  <Val>
0.266

$$$$
>  <Record Sequence>
RRIRCRPPRLPRPRPRPDLGPRP

>  <Quantity>
shrunken log2 fold change

>  <Val>
0.43

$$$$
>  <Record Sequence>
RRIRIRPPRLPRPRPRPLFAPRP

>  <Quantity>
shrunken log2 fold change

>  <Val>
-0.0892

$$$$
>  <Record Sequence>
RRIRWRPPRLPRPRPRPSWTPRP

>  <Quantity>
shrunken log2 fold change

>  <Val>
-0.0457

$$$$
>  <Record Sequence>
RRIRNRPPRLPRPRPRPPWYPRP

>  <Quantity>
shrunken log2 fold change

>  <Val>
-0.224

$$$$

* * *

tested on: Escherichia coli TOP10; assay: shrunken log2 fold change of peptide-encoding DNA abundance (4.5 h post-induction vs induction); higher = less antimicrobial activity (less host growth inhibition); settings: time post-induction: 4.5 h; library: site-saturation at positions 5, 18, 19, 20

>  <Record Sequence>
RRIRDRPPRLPRPRPRPGCDPRP

>  <shrunken log2 fold change>
0.79

$$$$
>  <Record Sequence>
RRIRFRPPRLPRPRPRPMPPPRP

>  <shrunken log2 fold change>
0.55

$$$$
>  <Record Sequence>
RRIRERPPRLPRPRPRPIGNPRP

>  <shrunken log2 fold change>
-0.134

$$$$
>  <Record Sequence>
RRIRIRPPRLPRPRPRPHWGPRP

>  <shrunken log2 fold change>
-0.175

$$$$
>  <Record Sequence>
RRIRERPPRLPRPRPRPTWYPRP

>  <shrunken log2 fold change>
-0.217

$$$$
>  <Record Sequence>
RRIRFRPPRLPRPRPRPCHSPRP

>  <shrunken log2 fold change>
-0.0231

$$$$
>  <Record Sequence>
RRIRWRPPRLPRPRPRPQIDPRP

>  <shrunken log2 fold change>
-0.688

$$$$
>  <Record Sequence>
RRIRDRPPRLPRPRPRPDGNPRP

>  <shrunken log2 fold change>
-0.00172

$$$$

* * *

test system: Escherichia coli TOP10; test: shrunken log2 fold change of peptide-encoding DNA abundance (4.5 h post-induction vs induction); higher = less antimicrobial activity (less host growth inhibition); conditions: time post-induction: 4.5 h; library: site-saturation at positions 5, 18, 19, 20
Tag: true if measured shrunken log2 fold change is not below 0.006, false if it is.

>  <Record Sequence>
RRIRSRPPRLPRPRPRPYPFPRP

>  <Assayed System>
Escherichia coli TOP10

>  <Label Value>
false

$$$$
>  <Record Sequence>
RRIRPRPPRLPRPRPRPIYWPRP

>  <Assayed System>
Escherichia coli TOP10

>  <Label Value>
false

$$$$
>  <Record Sequence>
RRIRHRPPRLPRPRPRPVRPPRP

>  <Assayed System>
Escherichia coli TOP10

>  <Label Value>
true

$$$$
>  <Record Sequence>
RRIRQRPPRLPRPRPRPYVHPRP

>  <Assayed System>
Escherichia coli TOP10

>  <Label Value>
false

$$$$
>  <Record Sequence>
RRIRPRPPRLPRPRPRPYLCPRP

>  <Assayed System>
Escherichia coli TOP10

>  <Label Value>
false

$$$$
>  <Record Sequence>
RRIRYRPPRLPRPRPRPRKMPRP

>  <Assayed System>
Escherichia coli TOP10

>  <Label Value>
false

$$$$
>  <Record Sequence>
RRIRKRPPRLPRPRPRPYTKPRP

>  <Assayed System>
Escherichia coli TOP10

>  <Label Value>
false

$$$$
>  <Record Sequence>
RRIRMRPPRLPRPRPRPKDYPRP

>  <Assayed System>
Escherichia coli TOP10

>  <Label Value>
true

$$$$
>  <Record Sequence>
RRIRNRPPRLPRPRPRPTALPRP

>  <Assayed System>
Escherichia coli TOP10

>  <Label Value>
false

$$$$
>  <Record Sequence>
RRIRWRPPRLPRPRPRPCYGPRP

>  <Assayed System>
Escherichia coli TOP10

>  <Label Value>
true

$$$$
>  <Record Sequence>
RRIRWRPPRLPRPRPRPCRAPRP

>  <Assayed System>
Escherichia coli TOP10

>  <Label Value>
true

$$$$
>  <Record Sequence>
RRIRARPPRLPRPRPRPDDDPRP

>  <Assayed System>
Escherichia coli TOP10

>  <Label Value>
true

$$$$
>  <Record Sequence>
RRIRIRPPRLPRPRPRPLKKPRP

>  <Assayed System>
Escherichia coli TOP10

>  <Label Value>
false

$$$$
>  <Record Sequence>
RRIRFRPPRLPRPRPRPMVEPRP

>  <Assayed System>
Escherichia coli TOP10

>  <Label Value>
false

$$$$
>  <Record Sequence>
RRIRQRPPRLPRPRPRPRHYPRP

>  <Assayed System>
Escherichia coli TOP10;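 note: peptides expressed intracellularly from a pBAD plasmid library in pooled LB shake-flask culture, induced with 0.3% L-arabinose, DNA abundance read by NGS, three biological replicates, DESeq2 with apeglm shrinkage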

>  <Label Value>
false

$$$$
